# target-of-assay: PDGFR α (Homo sapiens, UniProt P16234)
# Construct: purchased Upstate (Charlottesville, Va.)
# Sequence (P16234 24-1089, species assumed): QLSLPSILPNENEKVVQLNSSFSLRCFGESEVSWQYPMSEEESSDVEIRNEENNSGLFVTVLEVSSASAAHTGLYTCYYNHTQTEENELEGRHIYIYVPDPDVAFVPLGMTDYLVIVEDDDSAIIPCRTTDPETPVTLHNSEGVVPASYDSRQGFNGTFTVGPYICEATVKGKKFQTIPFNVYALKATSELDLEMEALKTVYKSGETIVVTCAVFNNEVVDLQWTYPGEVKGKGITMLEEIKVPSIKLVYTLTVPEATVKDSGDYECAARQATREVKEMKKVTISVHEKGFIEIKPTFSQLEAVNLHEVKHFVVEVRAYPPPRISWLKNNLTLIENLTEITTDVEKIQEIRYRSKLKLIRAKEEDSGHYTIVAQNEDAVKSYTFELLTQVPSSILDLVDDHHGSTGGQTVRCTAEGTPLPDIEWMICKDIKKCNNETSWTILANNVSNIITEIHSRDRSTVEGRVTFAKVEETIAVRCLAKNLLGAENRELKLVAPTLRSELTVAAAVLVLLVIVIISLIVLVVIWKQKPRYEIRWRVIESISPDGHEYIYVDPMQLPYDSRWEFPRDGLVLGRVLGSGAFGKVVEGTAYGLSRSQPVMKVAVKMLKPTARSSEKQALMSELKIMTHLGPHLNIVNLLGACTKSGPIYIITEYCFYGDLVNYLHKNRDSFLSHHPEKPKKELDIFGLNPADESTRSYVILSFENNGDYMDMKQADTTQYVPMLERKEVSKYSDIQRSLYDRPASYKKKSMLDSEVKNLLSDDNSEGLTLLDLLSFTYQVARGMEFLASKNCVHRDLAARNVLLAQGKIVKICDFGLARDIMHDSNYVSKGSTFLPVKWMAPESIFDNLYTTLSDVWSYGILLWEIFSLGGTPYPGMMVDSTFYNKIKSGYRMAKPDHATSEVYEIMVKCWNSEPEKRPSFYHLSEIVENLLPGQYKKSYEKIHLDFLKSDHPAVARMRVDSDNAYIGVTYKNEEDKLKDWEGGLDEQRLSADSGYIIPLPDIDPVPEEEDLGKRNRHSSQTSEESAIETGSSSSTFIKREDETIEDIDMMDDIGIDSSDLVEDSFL
# assay-details: Broad selectivity panel, 32P incorporation
# Format: biochemical
# test-settings: 0.1 μM compound, 40 μM ATP; read-out: Percent inhibition PDGFR α
readout-name: inhibition at 0.1 µM (%)
Give bare numbers, in %.

Please review the following examples before continuing.
1. CS(=O)(=O)N1CCC(Nc2nccc(-c3c(-c4ccc(F)cc4)nc4occn34)n2)CC1 [CCLXXIX]	0
2. CC(=O)N1CCC(Nc2nccc(-c3c(-c4ccc(F)cc4)nc4occn34)n2)CC1 [CCLXXVIII]	23
3. CN1[C@@H]2CC[C@H]1C[C@@H](Nc1nccc(-c3c(-c4ccc(F)cc4)nc4occn34)n1)C2 [CCLXXXI]	11

Note: attention shifts to another entry.
Task: Data request, read-out inhibition at 0.1 µM, for Fc1ccc(-c2nc3occn3c2-c2ccnc(N[C@@H]3CN4CCC3CC4)n2)cc1 [LXXI]
Result: 10

====

# target-of-assay: MAPK1 (Homo sapiens)
# Construct: purchased Upstate (Charlottesville, Va.)
# Sequence (P27361 whole entry): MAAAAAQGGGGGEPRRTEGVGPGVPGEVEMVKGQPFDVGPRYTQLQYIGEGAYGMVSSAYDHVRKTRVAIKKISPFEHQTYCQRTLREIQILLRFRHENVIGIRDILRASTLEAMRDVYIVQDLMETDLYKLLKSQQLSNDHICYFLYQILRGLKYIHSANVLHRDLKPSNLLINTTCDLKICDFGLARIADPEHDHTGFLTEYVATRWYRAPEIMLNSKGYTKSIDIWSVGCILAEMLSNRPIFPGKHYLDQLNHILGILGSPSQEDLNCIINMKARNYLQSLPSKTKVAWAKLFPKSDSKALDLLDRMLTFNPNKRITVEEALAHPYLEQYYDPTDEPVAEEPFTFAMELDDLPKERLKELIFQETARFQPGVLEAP
# assay-details: Broad selectivity panel, 32P incorporation
# Type: biochemical
# test-settings: 1 μM compound, 40 μM ATP; read-out: Percent inhibition MAPK1
# Protocol: Various compounds of the present invention are screened against a panel of 24 additional kinases (Upstate, Charlottesville, Va.). Compounds are tested 0.1 μM and 1 μM in reactions containing 40 μM ATP. Incorporation of radiolabeled phosphate (^32P) into each kinase substrate is measured in the presence and absence of test compound. Results are reported as the percent decrease in the amount of ^32P incorporated into the substrate in the presence of compound, compared to buffer control.
readout-name: inhibition at 1 µM
Please make sure the unit comes right after the number.

Hello, I would appreciate it if you could give inhibition at 1 µM for each entry below.
1. CN(C)CC(C)(C)CNc1nccc(-c2c(-c3ccc(F)cc3)nc3occn23)n1
2. CC(=O)N1CCC(Nc2nccc(-c3c(-c4ccc(F)cc4)nc4occn34)n2)CC1
3. CS(=O)(=O)N1CCC(Nc2nccc(-c3c(-c4ccc(F)cc4)nc4occn34)n2)CC1

Result:
1: 15%; 2: 63%; 3: 79%

====

# target-of-assay: PDGFR α (Homo sapiens)
# Construct: purchased Upstate (Charlottesville, Va.)
# assay-details: Broad selectivity panel, 32P incorporation
# Assay type: biochemical
# test-settings: 1 μM compound, 40 μM ATP; read-out: Percent inhibition PDGFR α
Answer Criterion not met if inhibition at 1 µM is under 10%, and Criterion met if it is 10% or more.

As a guide, the following entries are already answered.
1. Fc1ccc(-c2nc3occn3c2-c2ccnc(N[C@H]3CN4CCC3CC4)n2)cc1 [LXXXVII]	Criterion not met
2. Fc1ccc(-c2nc3occn3c2-c2ccnc(NC3CCNCC3)n2)cc1 [CCLXXX]	Criterion not met
3. CS(=O)(=O)N1CCC(Nc2nccc(-c3c(-c4ccc(F)cc4)nc4occn34)n2)CC1 [CCLXXIX]	Criterion not met
4. Fc1ccc(-c2nc3occn3c2-c2ccnc(N[C@@H]3CN4CCC3CC4)n2)cc1 [LXXI]	Criterion not met
5. CC(=O)N1CCC(Nc2nccc(-c3c(-c4ccc(F)cc4)nc4occn34)n2)CC1 [CCLXXVIII]	Criterion met

Attention now turns to another entry.
Task: In plain terms: is recorded inhibition at 1 µM at least 10% for CN1[C@@H]2CC[C@H]1C[C@@H](Nc1nccc(-c3c(-c4ccc(F)cc4)nc4occn34)n1)C2 [CCLXXXI] ?
Result: Criterion met

====

# target-of-assay: FGFR3 (Homo sapiens)
# Construct: purchased Upstate (Charlottesville, Va.)
# Sequence (P22607 23-806, species assumed): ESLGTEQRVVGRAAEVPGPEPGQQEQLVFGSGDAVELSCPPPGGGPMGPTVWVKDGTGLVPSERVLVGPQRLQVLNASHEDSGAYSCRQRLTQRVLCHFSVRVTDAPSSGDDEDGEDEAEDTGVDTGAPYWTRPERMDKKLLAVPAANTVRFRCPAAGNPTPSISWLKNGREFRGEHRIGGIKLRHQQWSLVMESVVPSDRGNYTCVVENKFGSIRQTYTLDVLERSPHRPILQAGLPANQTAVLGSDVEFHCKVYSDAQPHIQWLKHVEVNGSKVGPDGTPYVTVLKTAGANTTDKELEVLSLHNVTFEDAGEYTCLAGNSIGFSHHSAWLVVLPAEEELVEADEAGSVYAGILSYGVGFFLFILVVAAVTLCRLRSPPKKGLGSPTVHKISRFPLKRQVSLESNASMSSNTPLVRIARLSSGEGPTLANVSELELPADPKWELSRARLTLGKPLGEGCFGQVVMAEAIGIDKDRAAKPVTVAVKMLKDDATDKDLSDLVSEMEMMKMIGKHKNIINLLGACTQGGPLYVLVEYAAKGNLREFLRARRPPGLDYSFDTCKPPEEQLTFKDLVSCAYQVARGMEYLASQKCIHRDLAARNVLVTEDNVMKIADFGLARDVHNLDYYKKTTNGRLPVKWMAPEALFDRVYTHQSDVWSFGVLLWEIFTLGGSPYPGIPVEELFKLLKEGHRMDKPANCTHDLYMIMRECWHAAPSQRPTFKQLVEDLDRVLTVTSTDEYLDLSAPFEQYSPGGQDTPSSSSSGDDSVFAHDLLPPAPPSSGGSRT
# assay-details: Broad selectivity panel, 32P incorporation
# Format: biochemical
# test-settings: 1 μM compound, 40 μM ATP; read-out: Percent inhibition FGFR3
readout-name: inhibition at 1 µM (%)
Answers are plain numbers, in %.

Please state inhibition at 1 µM for every compound in the list that follows.
1. CN1[C@@H]2CC[C@H]1C[C@@H](Nc1nccc(-c3c(-c4ccc(F)cc4)nc4occn34)n1)C2 [CCLXXXI]
2. Fc1ccc(-c2nc3occn3c2-c2ccnc(N[C@H]3CN4CCC3CC4)n2)cc1 [LXXXVII]

Result:
1. 26
2. -21

Would you mind listing inhibition at 1 µM for each of the following compounds?
1. CC(=O)N1CCC(Nc2nccc(-c3c(-c4ccc(F)cc4)nc4occn34)n2)CC1 [CCLXXVIII]
2. Fc1ccc(-c2nc3occn3c2-c2ccnc(N[C@@H]3CN4CCC3CC4)n2)cc1 [LXXI]
3. CS(=O)(=O)N1CCC(Nc2nccc(-c3c(-c4ccc(F)cc4)nc4occn34)n2)CC1 [CCLXXIX]
4. Fc1ccc(-c2nc3occn3c2-c2ccnc(NC3CCNCC3)n2)cc1 [CCLXXX]
5. CN(C)CC(C)(C)CNc1nccc(-c2c(-c3ccc(F)cc3)nc3occn23)n1 [CXIX]

Result:
1: 32; 2: 16; 3: 10; 4: 13; 5: -2

====

# target-of-assay: MAPK2 (Homo sapiens, UniProt P28482)
# Construct: purchased Upstate (Charlottesville, Va.)
# Sequence (P28482 whole entry): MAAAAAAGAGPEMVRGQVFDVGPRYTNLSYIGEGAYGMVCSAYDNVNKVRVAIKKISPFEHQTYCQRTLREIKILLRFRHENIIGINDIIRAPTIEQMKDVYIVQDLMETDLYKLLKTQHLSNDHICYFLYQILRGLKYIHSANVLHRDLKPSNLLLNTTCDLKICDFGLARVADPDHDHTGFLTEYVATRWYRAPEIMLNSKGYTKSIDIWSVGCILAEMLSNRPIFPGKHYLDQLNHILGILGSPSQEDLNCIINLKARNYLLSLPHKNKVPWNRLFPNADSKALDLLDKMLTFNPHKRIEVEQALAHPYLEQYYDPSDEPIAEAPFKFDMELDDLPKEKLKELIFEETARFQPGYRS
# assay-details: Broad selectivity panel, 32P incorporation
# Format: biochemical
# test-settings: 0.1 μM compound, 40 μM ATP; read-out: Percent inhibition MAPK2
Respond with class 1 for inhibition at 0.1 µM values of 10% and above, class 0 for values below.

// known answers, use as guide
1) Fc1ccc(-c2nc3occn3c2-c2ccnc(N[C@@H]3CN4CCC3CC4)n2)cc1	class 0
2) Fc1ccc(-c2nc3occn3c2-c2ccnc(NC3CCNCC3)n2)cc1	class 0
3) Fc1ccc(-c2nc3occn3c2-c2ccnc(N[C@H]3CN4CCC3CC4)n2)cc1	class 0

Task: Quick check, inhibition at 0.1 µM >= 10%? "CC(=O)N1CCC(Nc2nccc(-c3c(-c4ccc(F)cc4)nc4occn34)n2)CC1"
Result: class 1

Task: Request: "CS(=O)(=O)N1CCC(Nc2nccc(-c3c(-c4ccc(F)cc4)nc4occn34)n2)CC1"
Result: class 1

====

# target-of-assay: MKK6 (Homo sapiens, UniProt P52564)
# Construct: purchased Upstate (Charlottesville, Va.)
# Sequence (P52564 whole entry, species assumed): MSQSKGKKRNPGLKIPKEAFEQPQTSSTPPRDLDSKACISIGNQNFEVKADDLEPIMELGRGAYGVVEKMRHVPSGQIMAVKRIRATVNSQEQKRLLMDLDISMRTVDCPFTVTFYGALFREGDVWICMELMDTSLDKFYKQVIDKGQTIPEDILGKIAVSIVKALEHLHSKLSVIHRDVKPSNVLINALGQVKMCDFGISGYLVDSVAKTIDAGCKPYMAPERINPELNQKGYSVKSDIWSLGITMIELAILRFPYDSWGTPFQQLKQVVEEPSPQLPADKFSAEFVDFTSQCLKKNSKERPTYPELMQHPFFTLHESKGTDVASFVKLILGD
# assay-details: Broad selectivity panel, 32P incorporation
# Type: biochemical
# test-settings: 1 μM compound, 40 μM ATP; read-out: Percent inhibition MKK6
Mark 0 (no) for inhibition at 1 µM values under 80%, and 1 (yes) for everything at or above.

1) CS(=O)(=O)N1CCC(Nc2nccc(-c3c(-c4ccc(F)cc4)nc4occn34)n2)CC1	1 (yes)
2) Fc1ccc(-c2nc3occn3c2-c2ccnc(NC3CCNCC3)n2)cc1	0 (no)
3) Fc1ccc(-c2nc3occn3c2-c2ccnc(N[C@H]3CN4CCC3CC4)n2)cc1	0 (no)

Task: Quick check: does "CC(=O)N1CCC(Nc2nccc(-c3c(-c4ccc(F)cc4)nc4occn34)n2)CC1" have inhibition at 1 µM greater than or equal to 80%?
Result: 1 (yes)

Task: Cool, now "CN(C)CC(C)(C)CNc1nccc(-c2c(-c3ccc(F)cc3)nc3occn23)n1"
Result: 0 (no)

Task: // next record "CN1[C@@H]2CC[C@H]1C[C@@H](Nc1nccc(-c3c(-c4ccc(F)cc4)nc4occn34)n1)C2"
Result: 0 (no)

====

# Test system: TNFα release from THP-1 cells
# assay-details: TNFα release from LPS-stimulated THP-1 cells
# Type: cell-based
# test-settings: Homo sapiens, THP-1, 18 h, read-out: TNFα (THP-1) IC50 (nM)
For each entry below, report its log10 IC50 value.
// units: nM (pre-log); metric: IC50; scale: log10

1) Fc1ccc(-c2nc3occn3c2-c2ccnc(N[C@H]3CN4CCC3CC4)n2)c(F)c1 [CCCIV]	0.23
2) Clc1ccccc1-c1nc2occn2c1-c1ccnc(N[C@@H]2CN3CCC2CC3)n1 [CCXCI]	1.89
3) Clc1ccccc1-c1nc2occn2c1-c1ccnc(N[C@H]2CN3CCC2CC3)n1 [CCCIII]	0.95
4) CN1[C@@H]2CC[C@H]1C[C@@H](Nc1nccc(-c3c(-c4ccc(F)cc4Cl)nc4occn34)n1)C2 [CCXCVI]	1.19
5) Cc1ccccc1-c1nc2occn2c1-c1ccnc(N[C@@H]2CN3CCC2CC3)n1 [CCXCII]	1.68
6) CN1[C@@H]2CC[C@H]1C[C@@H](Nc1nccc(-c3c(-c4ccccc4Cl)nc4occn34)n1)C2 [CCXCVII]	1.39
7) Cc1ccccc1-c1nc2occn2c1-c1ccnc(N[C@H]2CN3CCC2CC3)n1 [CCCII]	0.74

Task: Which log10 IC50 value is on record for Fc1ccc(-c2nc3occn3c2-c2ccnc(N[C@@H]3CN4CCC3CC4)n2)c(F)c1 [CCLXXXIX] ?
Result: 0.51

====

# target-of-assay: CaMKIV (Homo sapiens, UniProt Q16566)
# Construct: purchased Upstate (Charlottesville, Va.)
# Sequence (Q16566 whole entry, species assumed): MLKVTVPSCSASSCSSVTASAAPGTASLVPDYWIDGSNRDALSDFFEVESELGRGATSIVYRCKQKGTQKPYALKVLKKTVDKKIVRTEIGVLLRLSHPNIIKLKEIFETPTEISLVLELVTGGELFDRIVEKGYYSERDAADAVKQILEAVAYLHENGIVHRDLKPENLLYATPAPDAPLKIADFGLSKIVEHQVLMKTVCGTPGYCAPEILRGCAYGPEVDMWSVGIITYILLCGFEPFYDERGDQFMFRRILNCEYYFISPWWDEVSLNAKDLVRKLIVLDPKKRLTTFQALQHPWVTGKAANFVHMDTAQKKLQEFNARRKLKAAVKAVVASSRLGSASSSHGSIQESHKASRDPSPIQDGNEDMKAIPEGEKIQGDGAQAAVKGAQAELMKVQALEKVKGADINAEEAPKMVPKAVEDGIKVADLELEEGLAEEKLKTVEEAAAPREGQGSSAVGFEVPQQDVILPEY
# assay-details: Broad selectivity panel, 32P incorporation
# Assay type: biochemical
# test-settings: 0.1 μM compound, 40 μM ATP; read-out: Percent inhibition CaMKIV
Kindly state inhibition at 0.1 µM for each of the entries shown.
Numbers only, in %.

The following molecules have reported results that may help.
1) Fc1ccc(-c2nc3occn3c2-c2ccnc(N[C@H]3CN4CCC3CC4)n2)cc1 [LXXXVII]	-12
2) Fc1ccc(-c2nc3occn3c2-c2ccnc(N[C@@H]3CN4CCC3CC4)n2)cc1 [LXXI]	5
3) Fc1ccc(-c2nc3occn3c2-c2ccnc(NC3CCNCC3)n2)cc1 [CCLXXX]	-10
4) CN1[C@@H]2CC[C@H]1C[C@@H](Nc1nccc(-c3c(-c4ccc(F)cc4)nc4occn34)n1)C2 [CCLXXXI]	12
5) CN(C)CC(C)(C)CNc1nccc(-c2c(-c3ccc(F)cc3)nc3occn23)n1 [CXIX]	13

Quick batch: inhibition at 0.1 µM for everything below.
1. CS(=O)(=O)N1CCC(Nc2nccc(-c3c(-c4ccc(F)cc4)nc4occn34)n2)CC1 [CCLXXIX]
2. CC(=O)N1CCC(Nc2nccc(-c3c(-c4ccc(F)cc4)nc4occn34)n2)CC1 [CCLXXVIII]

Result:
1: 18; 2: 8
